protocol-details: Pharmacokinetic (PK) experiment in rats by gavage
Assay type: in vivo
experimental-setup: rat, plasma, po, male SD rats, 20 mg/kg, read-out: AUC0-24
observation-type: AUC(0-t) (ng·h/mL)
Numbers only, in ng·h/mL.

* C=CC(=O)N1CCN(c2nc(=O)n(-c3c(C)ccnc3C(C)C)c3nc(-c4c(F)ccc5ccoc45)c(Cl)cc23)[C@@H](C)C1 (single isomer, unassigned) [Compound 73-1] | 4300
* C=CC(=O)N1CCN(c2nc(=O)n(-c3c(C)ccnc3C(C)C)c3nc(-c4c(O)cccc4F)c(F)cc23)[C@@H](C)C1 (atropisomer, axis not shown) [AMG510, reference compound] | 3370

Now consider a different compound.
// lookup AUC(0-t) for C=CC(=O)N1C[C@H](C)N(c2nc(=O)n(-c3c(C)ccnc3C(C)C)c3nc(-c4c(F)ccc5ccoc45)c(Cl)cc23)C[C@H]1C (single isomer, unassigned) [Compound 90-1]
13800
